Reference for the values: PubChem BioAssay AID256

Hi there, I'd appreciate the recorded T/C for every entry that follows.
# System: CD2F1 mice, L1210 leukemia ip, survival T/C
# protocol notes: NCI In Vivo Anticancer Drug Screen. Data for tumor model L1210 Leukemia (intraperitoneal) in CD2F1 (CDF1) mice
# experimental setup: endpoint: mean survival time; dose: 200.0 mg/kg/injection; schedule: Q04DX002 (ip); vehicle: saline with Tween-80; higher = longer survival
# Experimental: The antitumor activity of compounds was measured in mice bearing transplantable tumors. Survival or tumor size were measured and the results are expressed as the measurement made in the treated group (T) divided by the measurement made in the vehicle treated control group (C). The tumor model used in this assay is L1210 Leukemia (intraperitoneal) in CD2F1 (CDF1) mice
Toxic doses and inconclusive results are not listed.

What T/C appears in the records for this compound with CD2F1 mice, L1210 leukemia ip, survival T/C? c1ccc(CCSCCSCCc2ccccn2)nc1 101 % of control

What T/C appears in the records for this compound with CD2F1 mice, L1210 leukemia ip, survival T/C? N[C@@H](Cc1ccc(O)c(O)c1)C(=O)O 95 % of control

What T/C appears in the records for this compound with CD2F1 mice, L1210 leukemia ip, survival T/C? CC(C)CCCC(C)CO[P+](=O)OCC(C)CCCC(C)C (configuration not stated) 96 % of control

What T/C appears in the records for this compound with CD2F1 mice, L1210 leukemia ip, survival T/C? CCCCCCCC/C=C\CCCCCCCCNP(=O)(OCCCCCCCCCCCC)OCCCCCCCCCCCC 89 % of control

What T/C appears in the records for this compound with CD2F1 mice, L1210 leukemia ip, survival T/C? S=C(N/N=C/c1ccccn1)Nc1ccccn1 114 % of control

What T/C appears in the records for this compound with CD2F1 mice, L1210 leukemia ip, survival T/C? O=C(O)c1cccc(F)c1Cl 102 % of control

What T/C appears in the records for this compound with CD2F1 mice, L1210 leukemia ip, survival T/C? C/C=C/C=C/C(=O)c1ccc(OC)cc1O 89 % of control

---

# Tested on: CD2F1 mice, L1210 leukemia ip, survival T/C
# protocol notes: NCI In Vivo Anticancer Drug Screen. Data for tumor model L1210 Leukemia (intraperitoneal) in CD2F1 (CDF1) mice
# experimental setup: endpoint: mean survival time; dose: 100.0 mg/kg/injection; schedule: Q04DX003 (ip); vehicle: Klucel (hydroxypropylcellulose) (HPC); higher = longer survival
Inconclusive results and toxic doses are left out.
outcome measure: T/C

Item Cc1ccc(S(=O)(=O)Nc2ccc([N+](=O)[O-])cc2O)cc1 has what recorded T/C? 94 % of control

Item O=C(C(=C(c1ccccc1)c1ccccc1)N1CCCCC1)c1ccccc1 has what recorded T/C? 94 % of control

Item NNC(=O)CNc1cccc(Br)c1 has what recorded T/C? 98 % of control

Item CC(=O)C1CCC2C3CC=C4CC(n5cc(F)c(=O)[nH]c5=O)CCC4(C)C3CCC12C (stereo unspecified) has what recorded T/C? 98 % of control

Item CC1CCc2ccccc2N1CCN (stereo unspecified) has what recorded T/C? 95 % of control

Item O=C(O)c1c2ccccc2cc2ccccc12 has what recorded T/C? 101 % of control

Item O=C(Nc1cccc(F)c1)c1ccco1 has what recorded T/C? 94 % of control

Item CC(C)C1CCC(C)C(C(O)(C(F)(F)F)C(F)(F)F)C1=O (stereo unspecified) has what recorded T/C? 96 % of control

Item CC(=O)CC(OC(C)=O)(C(F)(F)F)C(F)(F)F has what recorded T/C? 90 % of control

Item c1ccc(N/N=C(/C[n+]2cc3ccccc3c3ccccc32)c2ccccc2)cc1 has what recorded T/C? 94 % of control

Item C#CCOc1c(C(=O)OCC)cnc2c1c(C)nn2CC has what recorded T/C? 101 % of control

---

Hi there, I'd appreciate the recorded T/C for every entry that follows.
# Tested on: CD2F1 mice, L1210 leukemia ip, survival T/C
# protocol notes: NCI In Vivo Anticancer Drug Screen. Data for tumor model L1210 Leukemia (intraperitoneal) in CD2F1 (CDF1) mice
# experimental setup: endpoint: mean survival time; dose: 12.5 mg/kg/injection; schedule: Q01DX009 (ip); vehicle: saline with Tween-80; higher = longer survival
# Experimental: The antitumor activity of compounds was measured in mice bearing transplantable tumors. Survival or tumor size were measured and the results are expressed as the measurement made in the treated group (T) divided by the measurement made in the vehicle treated control group (C). The tumor model used in this assay is L1210 Leukemia (intraperitoneal) in CD2F1 (CDF1) mice
Toxic doses and inconclusive results are not listed.

Item CCCCOc1cc(C(=O)NCCN(CC)CC)c2ccccc2n1 has what recorded T/C? 108 % of control

Item CCCCCCCCNC(C)=O has what recorded T/C? 90 % of control

Item Cc1cccc(C)c1C1=NCCN1 has what recorded T/C? 98 % of control

---

Hi there, I'd appreciate the recorded T/C for every entry that follows.
# System: CD2F1 mice, L1210 leukemia ip, survival T/C
# protocol notes: NCI In Vivo Anticancer Drug Screen. Data for tumor model L1210 Leukemia (intraperitoneal) in CD2F1 (CDF1) mice
# experimental setup: endpoint: mean survival time; dose: 50.0 mg/kg/injection; schedule: Q01DX009 (ip); vehicle: saline; higher = longer survival
Toxic doses and inconclusive results are not listed.

Item O=C(OC(c1ccccc1)c1ccccc1)C(CSC(c1ccccc1)(c1ccccc1)c1ccccc1)NC(c1ccccc1)(c1ccccc1)c1ccccc1 (centres undefined) has what recorded T/C? 96 % of control

Item COC(=O)c1ccccc1NC(=O)/C=C/C(=O)O has what recorded T/C? 94 % of control

Item C=C(Br)CNC(=O)OC has what recorded T/C? 112 % of control

Item CCN(CC)CC[n+]1ccc2c(C)c3[nH]c4ccc(O)cc4c3c(C)c2c1 has what recorded T/C? 102 % of control

Item CS(C)(=O)=C/C(=C\C(=O)c1ccccc1)c1ccccc1 has what recorded T/C? 94 % of control

Item CCC(N)Cc1ccc2c(c1)OCO2 (centres undefined) has what recorded T/C? 93 % of control

Item O=C1CCCN1 has what recorded T/C? 91 % of control

Item O=c1[nH]c(=O)n(C2CC(O)C(CO)O2)cc1I (centres undefined) has what recorded T/C? 106 % of control

Item CC(=O)c1ccc[n+](Cc2ccc([N+](=O)[O-])cc2)c1 has what recorded T/C? 109 % of control

Item Nc1ncnc2c1ncn2C1OC(COP(=O)(O)O)C(O)C1O (centres undefined) has what recorded T/C? 100 % of control

Item CNCc1ccc([N+](=O)[O-])cc1 has what recorded T/C? 104 % of control

Item ONc1ccccn1 has what recorded T/C? 96 % of control

Item CC1(C)N=C(N)N=C(N)N1c1ccc(OCC(=O)Nc2ccc(S(=O)(=O)F)cc2)cc1 has what recorded T/C? 111 % of control

Item N[C@@H](Cc1ccc(O)c(O)c1)C(=O)O has what recorded T/C? 97 % of control

---

# System: CD2F1 mice, L1210 leukemia ip, survival T/C
# protocol notes: NCI In Vivo Anticancer Drug Screen. Data for tumor model L1210 Leukemia (intraperitoneal) in CD2F1 (CDF1) mice
# experimental setup: endpoint: mean survival time; dose: 6.25 mg/kg/injection; schedule: Q04DX003 (ip); vehicle: distilled water + Tween-80; higher = longer survival
Toxic doses and inconclusive results are not listed.
Hi there, I'd appreciate the recorded T/C for every entry that follows.

Item O=C(CC(=O)c1ccccc1)c1ccccc1.O=C(CC(=O)c1ccccc1)c1ccccc1.[Pd] has what recorded T/C? 98 % of control

Item Nc1cc(=O)[nH]c(=S)[nH]1.[Pt] has what recorded T/C? 100 % of control

Item [I][Pt+2][I].[NH-]c1ccccc1F.[NH-]c1ccccc1F has what recorded T/C? 101 % of control

Item CC(O)(P(=O)(O)O)P(=O)(O)O.[NH-]CC[NH-].[NH-]CC[NH-].[Pt+2].[Pt+2] has what recorded T/C? 104 % of control

---

# Tested on: CD2F1 mice, L1210 leukemia ip, survival T/C
# protocol notes: NCI In Vivo Anticancer Drug Screen. Data for tumor model L1210 Leukemia (intraperitoneal) in CD2F1 (CDF1) mice
# experimental setup: endpoint: mean survival time; dose: 300.0 mg/kg/injection; schedule: Q01DX001 (ip); vehicle: saline; higher = longer survival
Toxic doses and inconclusive results are not listed.
Hi there, I'd appreciate the recorded T/C for every entry that follows.

Item CCOC(=O)c1cc2c(=O)cccnc2o1 has what recorded T/C? 96 % of control

Item c1ccc2c(-c3cnc(-c4ccc(-c5ncc(-c6cccc7ccccc67)o5)cc4)o3)cccc2c1 has what recorded T/C? 97 % of control

Item CCOC(=O)c1c(-c2ccccc2)csc1NS(=O)(=O)c1ccc(C)cc1 has what recorded T/C? 101 % of control

Item FC1(F)C2Cc3ccccc3C2C1(Cl)Cl (stereo not drawn) has what recorded T/C? 100 % of control

Item COC(c1ccccc1)C(c1ccccc1)[N+]1(C)CCCCC1 (stereo not drawn) has what recorded T/C? 97 % of control

Item Nc1nc(SSc2nc(N)nc3c2ncn3C2OC(CO)CC2O)c2ncn(C3OC(CO)CC3O)c2n1 (stereo not drawn) has what recorded T/C? 118 % of control

Item O=S1(=O)CCCCC1 has what recorded T/C? 95 % of control

Item CC(N)c1ccccc1 (stereo not drawn) has what recorded T/C? 106 % of control
